Data credit: ChEMBL document CHEMBL3259744

# pIC50 values compiled below
tested on: COLO 205; experiment: Cytotoxicity against human COLO205 cells after 72 hrs by MTT assay; type: functional, cell-based; details: COLO 205, 72 h
pIC50: −log10 of the molar value.
measurement name: pIC50

| smiles | measurement name | measured result |
| --- | --- | --- |
| COc1ccc(C(=O)c2cc(OC)c(OC)c(OC)c2)cc1NC(=O)/C=C/c1cccc(OC(F)(F)F)c1 | pIC50 | 5.10 |
| COc1ccc(C(=O)c2cc(OC)c(OC)c(OC)c2)cc1NC(=O)/C=C/c1ccc(F)cc1 | pIC50 | 5.47 |
| COc1cc(C(=O)c2cc(OC)c(OC)c(OC)c2)cc(NC(=O)/C=C/c2ccc(C(F)(F)F)cc2)c1OC | pIC50 | 5.60 |
| COc1ccc(/C=C/C(=O)Nc2cc(C(=O)c3cc(OC)c(OC)c(OC)c3)cc(OC)c2OC)cc1N | pIC50 | 5.00 |
| COc1cc(C(=O)c2cc(OC)c(OC)c(OC)c2)cc(N)c1OC | pIC50 | 5.36 |
